Here, each record is paired with measured PBM binding z-score data.
system: PPARg:RXRa (NR concentration 180 nM, RXRa partner concentration 90 nM); experiment: PBM binding z-score (relative to random genomic background probes); higher = stronger binding; sequences stand for … in GC…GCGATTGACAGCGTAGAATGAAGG
// response body must contain only the number

// worked examples, PBM binding z-score included
sequence_record: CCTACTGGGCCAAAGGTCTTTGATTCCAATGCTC
tested_system: PPARg:RXRa (NR concentration 180 nM, RXRa partner concentration 90 nM)
PBM binding z-score: 8.96
//
sequence_record: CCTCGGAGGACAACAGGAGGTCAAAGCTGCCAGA
tested_system: PPARg:RXRa (NR concentration 180 nM, RXRa partner concentration 90 nM)
PBM binding z-score: 1.17
//
sequence_record: ATATGTAGGGTAGGGTCATTCAGAAAGTAGGGAA
tested_system: PPARg:RXRa (NR concentration 180 nM, RXRa partner concentration 90 nM)
PBM binding z-score: 7.32
//
sequence_record: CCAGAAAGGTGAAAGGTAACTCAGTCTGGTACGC
tested_system: PPARg:RXRa (NR concentration 180 nM, RXRa partner concentration 90 nM)
PBM binding z-score: 6.55
//
sequence_record: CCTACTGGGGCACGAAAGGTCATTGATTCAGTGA
tested_system: PPARg:RXRa (NR concentration 180 nM, RXRa partner concentration 90 nM)
PBM binding z-score: 6.01
//
sequence_record: CCTCGGAGGACAACCGGAGGTCAGAGCTGCCAGA
tested_system: PPARg:RXRa (NR concentration 180 nM, RXRa partner concentration 90 nM)
PBM binding z-score: 0.316

// recorded PBM binding z-score for `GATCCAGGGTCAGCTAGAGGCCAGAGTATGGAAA` : 3.24

So for `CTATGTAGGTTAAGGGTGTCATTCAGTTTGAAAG` , the logged PBM binding z-score turned out to be 8.17

Entry `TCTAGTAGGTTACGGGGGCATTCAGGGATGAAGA` ; PBM binding z-score = 8

---

tested on: PPARg DBDmut IVT, anti-PPARg (DBD mutation: PPARg1 K132A/R137A, NR concentration 270 nM); test: PBM binding z-score (relative to random genomic background probes); higher = stronger binding; sequences stand for … in GC…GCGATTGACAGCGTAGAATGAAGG
metric: PBM binding z-score
Output spec: single numeric token, no unit.

Reference set (8 entries):
sequence_record: TCTAGTTGGTCGCGGAGGTCACACACGACGGGTA
PBM binding z-score: 0.328
//
sequence_record: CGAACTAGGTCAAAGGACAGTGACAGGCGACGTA
PBM binding z-score: 1.51
//
sequence_record: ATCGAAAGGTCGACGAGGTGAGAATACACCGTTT
PBM binding z-score: 1.17
//
sequence_record: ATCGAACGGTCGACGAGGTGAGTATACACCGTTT
PBM binding z-score: 0.651
//
sequence_record: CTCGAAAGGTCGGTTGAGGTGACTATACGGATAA
PBM binding z-score: 0.106
//
sequence_record: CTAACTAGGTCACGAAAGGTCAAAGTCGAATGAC
PBM binding z-score: 2.06
//
sequence_record: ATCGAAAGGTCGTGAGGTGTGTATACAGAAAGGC
PBM binding z-score: 0.468
//
sequence_record: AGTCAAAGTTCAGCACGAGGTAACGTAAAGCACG
PBM binding z-score: 0.124

The sequence `CAAACTAGGTCACAGAGGTCAAAGTTCGTGCGTA` , when measured on PPARg DBDmut IVT, anti-PPARg (DBD mutation: PPARg1 K132A/R137A, NR concentration 270 nM), yielded PBM binding z-score of 5.18

Result for `ATATGTAGGTTAGGGTTATTCAGAAAGTAGGGAA` , tested on PPARg DBDmut IVT, anti-PPARg (DBD mutation: PPARg1 K132A/R137A, NR concentration 270 nM), PBM binding z-score: 2.32

Reading of PBM binding z-score for `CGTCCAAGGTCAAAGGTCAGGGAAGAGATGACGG` with PPARg DBDmut IVT, anti-PPARg (DBD mutation: PPARg1 K132A/R137A, NR concentration 270 nM): 0.451

The value of PBM binding z-score recorded for `CCTGCTAGTTCAATGGTCAGCTAAAGCAGCTCGC` when tested on PPARg DBDmut IVT, anti-PPARg (DBD mutation: PPARg1 K132A/R137A, NR concentration 270 nM) reads -1.19

---

test system: PPARg:RXRa DBDmut IVT, anti-RXR (DBD mutation: RXRa K156A/R161A, NR concentration 270 nM, RXRa partner concentration 90 nM); assay: PBM binding z-score (relative to random genomic background probes); higher = stronger binding; sequences stand for … in GC…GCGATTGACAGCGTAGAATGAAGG
metric: PBM binding z-score
Answer with a bare number; do not write a unit.

sequence_record: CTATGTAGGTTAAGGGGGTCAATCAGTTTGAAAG
PBM binding z-score: 7.42

PBM binding z-score reported for this sequence `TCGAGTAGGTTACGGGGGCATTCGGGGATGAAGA` : 5.16

For record `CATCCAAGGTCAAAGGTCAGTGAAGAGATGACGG` the listed PBM binding z-score is 4.07

Field PBM binding z-score (entry `ACTAGTAGGTCAGCTGAGGTCACACACAATTCGG` ) reads 7.68

Value of measured PBM binding z-score for the entry `ATATGTAGGTTAGGGTCATGCAGAAAGTAGGGAA` : 6.6

response.value for `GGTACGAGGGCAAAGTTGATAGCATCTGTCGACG` (field: PBM binding z-score) = 2.41

The sequence `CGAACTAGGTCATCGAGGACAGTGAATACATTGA` showed PBM binding z-score equal to 8.15

For record `ATATGTACGTTAGGGTCATTCAGAAAGTAGGGAA` the listed PBM binding z-score is 0.518

The sequence `GCTGCTAGGTCAGGATGGTCAGCTAACGGGTACG` showed PBM binding z-score equal to 2.74

---

system: PPARg:RXRa DBDmut IVT, anti-RXR (DBD mutation: RXRa K156A/R161A, NR concentration 270 nM, RXRa partner concentration 90 nM); assay: PBM binding z-score (relative to random genomic background probes); higher = stronger binding; sequences stand for … in GC…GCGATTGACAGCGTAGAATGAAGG
metric: PBM binding z-score

sequence_record: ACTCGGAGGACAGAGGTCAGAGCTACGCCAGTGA
PBM binding z-score: 0.205
//
sequence_record: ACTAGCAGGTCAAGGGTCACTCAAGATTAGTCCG
PBM binding z-score: 4.43
//
sequence_record: TAGCCTAGGTGATTGGGCCAGTATAGTACGCATC
PBM binding z-score: 0.598

The reported value for `AGATGTAGGTTAGGGTCATTCAGAAAGTAGGGAA` in terms of PBM binding z-score is 5.84

sequence `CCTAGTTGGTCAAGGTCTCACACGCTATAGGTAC` , PBM binding z-score observed: 1.7

Sample `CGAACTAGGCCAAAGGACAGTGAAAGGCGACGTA` ; PBM binding z-score observed: 5.96

GET /value?item= `CAAACTAGGTCAAAGGTCAGAGTCGAGCCAACCA` &field=PBM binding z-score returns 8.97

// `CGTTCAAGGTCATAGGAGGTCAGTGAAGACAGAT` : PBM binding z-score value = 3.95

Reported PBM binding z-score ( `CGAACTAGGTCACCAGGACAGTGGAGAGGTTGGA` ) = 8.2

PBM binding z-score measured on `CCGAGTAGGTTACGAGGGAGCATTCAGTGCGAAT` = 4.73

Record summary for `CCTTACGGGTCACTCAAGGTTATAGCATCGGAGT` : reported PBM binding z-score = 2.86

What the record says about `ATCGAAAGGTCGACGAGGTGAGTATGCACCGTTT` : PBM binding z-score is 0.283

---

Parameter PBM binding z-score: see the listing below.
test system: RARa:RXR (NR concentration 270 nM, RXRa partner concentration 90 nM); experiment: PBM binding z-score (relative to random genomic background probes); higher = stronger binding; sequences stand for … in GC…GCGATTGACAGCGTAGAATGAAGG

sequence_record: CCGAGTAGGATACGAGGGGGCATTCAGTGCGAAT
observed_value: 1.78

Continue with the next sequence.
Consider `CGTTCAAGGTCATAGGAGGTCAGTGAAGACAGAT` . Its measured PBM binding z-score is 6.33

---

// PBM binding z-score lookup, one value per entry
system: PPARg DBDmut IVT, anti-PPARg (DBD mutation: PPARg1 K132A/R137A, NR concentration 270 nM); experiment: PBM binding z-score (relative to random genomic background probes); higher = stronger binding; sequences stand for … in GC…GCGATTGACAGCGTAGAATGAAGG

sequence_record: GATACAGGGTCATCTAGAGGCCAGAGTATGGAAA
metric: PBM binding z-score
observed_value: 0.0112
--
sequence_record: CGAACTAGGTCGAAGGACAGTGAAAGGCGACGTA
metric: PBM binding z-score
observed_value: -0.201
--
sequence_record: ATCAAAAGGTCGAAGGTGAGTATACCCACCCGAA
metric: PBM binding z-score
observed_value: 0.784
--
sequence_record: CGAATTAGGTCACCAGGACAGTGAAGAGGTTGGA
metric: PBM binding z-score
observed_value: 2.04
--
sequence_record: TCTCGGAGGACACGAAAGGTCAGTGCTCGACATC
metric: PBM binding z-score
observed_value: -0.365
--
sequence_record: CCTACTGGGCCACGTAAGGTCATTGATTCAGTGA
metric: PBM binding z-score
observed_value: -0.733
--
sequence_record: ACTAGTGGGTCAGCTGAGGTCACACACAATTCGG
metric: PBM binding z-score
observed_value: 0.986
--
sequence_record: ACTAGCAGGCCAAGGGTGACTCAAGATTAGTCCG
metric: PBM binding z-score
observed_value: -0.633
--
sequence_record: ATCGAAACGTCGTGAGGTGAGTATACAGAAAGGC
metric: PBM binding z-score
observed_value: -0.047
--
sequence_record: GCTAGTTGGTCAGTAAATGGTCACACACCGGTCG
metric: PBM binding z-score
observed_value: 0.192

// `ACTCGGAGGATAAAGGTCAGAGCTACGCCAGTGA` : PBM binding z-score value = 0.296

Lookup result for `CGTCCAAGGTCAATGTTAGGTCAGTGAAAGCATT` ; measured PBM binding z-score: -0.256
